target: VIM-2 metallo β-lactamase (Pseudomonas aeruginosa, UniProt Q9K2N0); experiment: β-Lactamase inhibition enzyme assay, VIM-2; conditions: Nitrocefin 100 μM as substrate, 486 nm; 15 min at 37° C. with enzyme, PBS pH 7.4; read-out: Class B VIM-2 IC50
OBSERVABLE: IC50

MOL SMILES: N=C(N)NCc1cc(CNC(=N)N)cc(C(=O)N[C@H]2Cc3cccc(C(=O)O)c3OB2O)c1
RECORDED RESULT: < 100 nM

MOL SMILES: CN1CCc2cc(C(=O)N[C@H]3Cc4cccc(C(=O)O)c4OB3O)ccc2C1
RECORDED RESULT: 100 to 1000 nM

MOL SMILES: NCc1ccc(C(=O)N[C@H]2Cc3cccc(C(=O)O)c3OB2O)cc1CN
RECORDED RESULT: < 100 nM

MOL SMILES: NCCOc1ccc(CC(=O)N[C@H]2Cc3cccc(C(=O)O)c3OB2O)cc1O
RECORDED RESULT: 100 to 1000 nM

MOL SMILES: NCc1cc(CN)cc(C(=O)N[C@H]2Cc3cccc(C(=O)O)c3OB2O)c1
RECORDED RESULT: 1000 to 10000 nM

MOL SMILES: O=C(O)c1cccc2c1OB(O)[C@@H](NC(=O)C1(c3ccccc3)CC1)C2
RECORDED RESULT: 100 to 1000 nM

MOL SMILES: O=C1Cc2cc(C(=O)N[C@H]3Cc4cccc(C(=O)O)c4OB3O)ccc2N1
RECORDED RESULT: 100 to 1000 nM

MOL SMILES: O=C(N[C@H]1Cc2cccc(C(=O)O)c2OB1O)c1cnc2[nH]ccc2c1
RECORDED RESULT: 100 to 1000 nM

---

We begin with a simple list: items and their reported pIC50.
molecular target: KPC-2 β-lactamase (Klebsiella pneumoniae, UniProt Q9F663); construct: made in house; host or cells: E. coli BL21(DE3); assay: β-Lactamase inhibition enzyme assay, KPC-2; format: biochemical; settings: imipenem as substrate, 300 nm; 15 min at 37° C. with enzyme, PBS pH 7.4; read-out: Class A KPC-2 IC50
Sequence (Q9F663 25-293, looked up): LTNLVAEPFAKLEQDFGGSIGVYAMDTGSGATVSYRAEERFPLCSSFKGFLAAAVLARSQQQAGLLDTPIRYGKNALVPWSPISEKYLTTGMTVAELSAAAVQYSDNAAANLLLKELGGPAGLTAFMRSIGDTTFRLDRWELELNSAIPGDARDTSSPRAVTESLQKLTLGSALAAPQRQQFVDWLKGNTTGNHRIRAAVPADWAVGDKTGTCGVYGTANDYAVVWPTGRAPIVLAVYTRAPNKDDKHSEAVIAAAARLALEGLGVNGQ
pIC50: −log10 of the molar value.
OBSERVABLE: pIC50

MOL SMILES: NCCOc1ccc(CC(=O)N[C@H]2Cc3cccc(C(=O)O)c3OB2O)cc1OCCN
RECORDED RESULT: > 7.00
//
MOL SMILES: N=C(N)N1Cc2ccc(C(=O)N[C@H]3Cc4cccc(C(=O)O)c4OB3O)cc2C1
RECORDED RESULT: > 7.00
//
MOL SMILES: NCCNC(=O)c1ccccc1C(=O)N[C@H]1Cc2cccc(C(=O)O)c2OB1O
RECORDED RESULT: 6.00 to 7.00
//
MOL SMILES: NC1=NCc2ccc(C(=O)N[C@H]3Cc4cccc(C(=O)O)c4OB3O)cc2CN1
RECORDED RESULT: > 7.00
//
MOL SMILES: N=C(N)NCc1cc(CNC(=N)N)cc(C(=O)N[C@H]2Cc3cccc(C(=O)O)c3OB2O)c1
RECORDED RESULT: > 7.00
//
MOL SMILES: CN1Cc2ccc(CC(=O)N[C@H]3Cc4cccc(C(=O)O)c4OB3O)cc2C1
RECORDED RESULT: > 7.00
//
MOL SMILES: NCc1cc(CN)cc(C(=O)N[C@H]2Cc3cccc(C(=O)O)c3OB2O)c1
RECORDED RESULT: 5.00 to 6.00
//
MOL SMILES: O=C(N[C@H]1Cc2cccc(C(=O)O)c2OB1O)c1cnco1
RECORDED RESULT: > 7.00

---

Molecular target: SHV-5 β-lactamase (Klebsiella pneumoniae)
Sequence (P0A3M1 22-286): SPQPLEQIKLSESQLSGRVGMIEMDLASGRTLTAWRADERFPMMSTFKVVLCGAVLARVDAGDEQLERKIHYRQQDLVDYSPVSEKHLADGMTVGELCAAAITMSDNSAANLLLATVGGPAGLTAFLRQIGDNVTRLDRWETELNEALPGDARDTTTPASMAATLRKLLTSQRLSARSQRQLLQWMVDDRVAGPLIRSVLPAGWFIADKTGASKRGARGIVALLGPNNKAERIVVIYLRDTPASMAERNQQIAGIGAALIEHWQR
Experiment: β-Lactamase inhibition enzyme assay, SHV-5
Experimental: For SHV-5, Kpc-2, p99AmpC and OXA-1 β-lactamases, E. coli BL21(DE3) bacterial cells carrying expression plasmids (expressed as native untagged proteins) for the individual β-lactamases were grown in 1 L of Superbroth (Teknova Inc. Hollister, Calif.) supplemented with 100 μg/ml kanamycin selection and 1×5052 (0.5% glycerol, 0.05% glucose and 0.2% α-lactose) at 35° C. for 18-20 hours. […]
pIC50: −log10 of the molar value.
We begin with a simple list: items and their reported pIC50.

MOL SMILES: N=C(N)N1Cc2ccc(CC(=O)N[C@H]3Cc4cccc(C(=O)O)c4OB3O)cc2C1
EXPERIMENTAL SYSTEM: SHV-5 β-lactamase (Klebsiella pneumoniae)
pIC50: > 7.00
//
MOL SMILES: N=C(N)NCc1ccc(C(=O)N[C@H]2Cc3cccc(C(=O)O)c3OB2O)cc1CNC(=N)N
EXPERIMENTAL SYSTEM: SHV-5 β-lactamase (Klebsiella pneumoniae)
pIC50: 6.00 to 7.00
//
MOL SMILES: NCCN1Cc2ccc(C(=O)N[C@H]3Cc4cccc(C(=O)O)c4OB3O)cc2C1
EXPERIMENTAL SYSTEM: SHV-5 β-lactamase (Klebsiella pneumoniae)
pIC50: > 7.00
//
MOL SMILES: CNCc1ccc(C(=O)N[C@H]2Cc3cccc(C(=O)O)c3OB2O)cc1CNC
EXPERIMENTAL SYSTEM: SHV-5 β-lactamase (Klebsiella pneumoniae)
pIC50: > 7.00
//
MOL SMILES: CN1Cc2ccc(CC(=O)N[C@H]3Cc4cccc(C(=O)O)c4OB3O)cc2C1
EXPERIMENTAL SYSTEM: SHV-5 β-lactamase (Klebsiella pneumoniae)
pIC50: > 7.00
//
MOL SMILES: NCCOc1ccc(CC(=O)N[C@H]2Cc3cccc(C(=O)O)c3OB2O)cc1O
EXPERIMENTAL SYSTEM: SHV-5 β-lactamase (Klebsiella pneumoniae)
pIC50: > 7.00
//
MOL SMILES: NCc1cnc(C(=O)N[C@H]2Cc3cccc(C(=O)O)c3OB2O)cc1CN
EXPERIMENTAL SYSTEM: SHV-5 β-lactamase (Klebsiella pneumoniae)
pIC50: 6.00 to 7.00
//
MOL SMILES: NCCNc1ccc(CC(=O)N[C@H]2Cc3cccc(C(=O)O)c3OB2O)cc1
EXPERIMENTAL SYSTEM: SHV-5 β-lactamase (Klebsiella pneumoniae)
pIC50: > 7.00
//
MOL SMILES: O=C(N[C@H]1Cc2cccc(C(=O)O)c2OB1O)c1ccc(O)c(O)c1
EXPERIMENTAL SYSTEM: SHV-5 β-lactamase (Klebsiella pneumoniae)
pIC50: 6.00 to 7.00
//
MOL SMILES: NCCNC(=O)c1ccccc1C(=O)N[C@H]1Cc2cccc(C(=O)O)c2OB1O
EXPERIMENTAL SYSTEM: SHV-5 β-lactamase (Klebsiella pneumoniae)
pIC50: 6.00 to 7.00
//
MOL SMILES: NCc1ccc(CC(=O)N[C@H]2Cc3cccc(C(=O)O)c3OB2O)cc1CN
EXPERIMENTAL SYSTEM: SHV-5 β-lactamase (Klebsiella pneumoniae)
pIC50: > 7.00
//
MOL SMILES: Cc1ccc(C(=O)N[C@H]2Cc3cccc(C(=O)O)c3OB2O)cc1N
EXPERIMENTAL SYSTEM: SHV-5 β-lactamase (Klebsiella pneumoniae)
pIC50: > 7.00
//
MOL SMILES: N=C(N)N1Cc2ccc(C(=O)N[C@H]3Cc4cccc(C(=O)O)c4OB3O)cc2C1
EXPERIMENTAL SYSTEM: SHV-5 β-lactamase (Klebsiella pneumoniae)
pIC50: > 7.00
//
MOL SMILES: CN1CCc2cc(C(=O)N[C@H]3Cc4cccc(C(=O)O)c4OB3O)ccc2C1
EXPERIMENTAL SYSTEM: SHV-5 β-lactamase (Klebsiella pneumoniae)
pIC50: > 7.00
//
MOL SMILES: O=C(N[C@H]1Cc2cccc(C(=O)O)c2OB1O)c1ccc2nccnc2c1
EXPERIMENTAL SYSTEM: SHV-5 β-lactamase (Klebsiella pneumoniae)
pIC50: > 7.00

---

Biological target: VIM-2 metallo β-lactamase (Pseudomonas aeruginosa, UniProt Q9K2N0)
Assay: β-Lactamase inhibition enzyme assay, VIM-2
Conditions: Nitrocefin 100 μM as substrate, 486 nm; 15 min at 37° C. with enzyme, PBS pH 7.4; read-out: Class B VIM-2 IC50
Description: For SHV-5, Kpc-2, p99AmpC and OXA-1 β-lactamases, E. coli BL21(DE3) bacterial cells carrying expression plasmids (expressed as native untagged proteins) for the individual β-lactamases were grown in 1 L of Superbroth (Teknova Inc. Hollister, Calif.) supplemented with 100 μg/ml kanamycin selection and 1×5052 (0.5% glycerol, 0.05% glucose and 0.2% α-lactose) at 35° C. for 18-20 hours. […]
pIC50: −log10 of the molar value.
OBSERVABLE: pIC50

MOL SMILES: O=C(Cc1ccc2cc[nH]c2c1)N[C@H]1Cc2cccc(C(=O)O)c2OB1O
RECORDED RESULT: > 7.00
--
MOL SMILES: CN(C)Cc1ccc(C(=O)N[C@H]2Cc3cccc(C(=O)O)c3OB2O)cc1N
RECORDED RESULT: 6.00 to 7.00
--
MOL SMILES: O=C(O)c1cccc2c1OB(O)[C@@H](NC(=O)c1c[nH]c3ncccc13)C2
RECORDED RESULT: 5.00 to 6.00
--
MOL SMILES: CC(C)NCc1ccc(C(=O)N[C@H]2Cc3cccc(C(=O)O)c3OB2O)cc1CNC(C)C
RECORDED RESULT: 6.00 to 7.00
--
MOL SMILES: O=C(O)c1cccc2c1OB(O)[C@@H](NC(=O)c1cccc3cc[nH]c13)C2
RECORDED RESULT: 5.00 to 6.00
--
MOL SMILES: O=C(N[C@H]1Cc2cccc(C(=O)O)c2OB1O)c1ccc(-c2ccncc2)cc1
RECORDED RESULT: 5.00 to 6.00
--
MOL SMILES: O=C(N[C@H]1Cc2cccc(C(=O)O)c2OB1O)c1ccc2c(c1)CN(Cc1cccnc1)C2
RECORDED RESULT: 6.00 to 7.00
--
MOL SMILES: O=C(N[C@H]1Cc2cccc(C(=O)O)c2OB1O)c1ccc2[nH]ccc2c1
RECORDED RESULT: 6.00 to 7.00
--
MOL SMILES: CN1Cc2ccc(CC(=O)N[C@H]3Cc4cccc(C(=O)O)c4OB3O)cc2C1
RECORDED RESULT: > 7.00
--
MOL SMILES: CN1Cc2ccc(C(=O)N[C@H]3Cc4cccc(C(=O)O)c4OB3O)cc2C1
RECORDED RESULT: > 7.00
--
MOL SMILES: O=C(N[C@H]1Cc2cccc(C(=O)O)c2OB1O)c1ccc(-c2ccccn2)cc1
RECORDED RESULT: 6.00 to 7.00
